Where do these numbers come from? They come from PubChem BioAssay (NCI).

- protocol_summary: NCI Yeast Anticancer Drug Screen. Data for the mec2-1 strain (AID 157)
- condition_set: S. cerevisiae mec2-1 strain, active compounds read high; at 50.0 µM unless noted
This is part of a sample that, as a whole, favours compounds with a hit. Of some 79,000 tested, about 15% had one in any assay.
This listing pairs compounds with measured growth inhibition.

{"columns": ["compound", "growth inhibition (%)"],
 "data": [
  ["CC(C)c1ccc(/C(C(=O)O)=C(\\O)C(=O)O)cc1", -7.25],
  ["Cc1ccc(S(=O)(=O)N/N=C/c2ccoc2)cc1", -8.6],
  ["CC(=O)Nc1c(N)c2ccccc2c2ccccc12", -13.9],
  ["O=C(CSc1n[nH]c(=S)c2nc[nH]c12)c1ccc(Br)cc1", -0.2],
  ["CCCNC(=O)Oc1ccccc1C(=O)NCO", 0.4],
  ["O=C(c1ccccc1)c1ccc2ccccc2c1", 13],
  ["COC(=O)C1CCCCCCCCCCC12SCCCS2 (stereo not drawn)", -11.4],
  ["COc1cc2cnc3c4cc(OCc5ccccc5)ccc4ccc3c2cc1OC", 3.2],
  ["CC1=NC(=Cc2cc(Br)cc(Br)c2)C(=O)N1n1c(-c2ccccc2)nc2ccccc2c1=O", -15.8],
  ["CCNC(=O)c1ccccc1S(C)=O (stereo not drawn)", -19.3],
  ["CC(C)OC(=S)SC1CCCCC1=O (stereo not drawn)", -8.1],
  ["Brc1ccc(-c2ccccc2)cc1", 17.8],
  ["CCOc1ccc(NC(=O)C(=O)CC(=O)c2c(C)n([O-])c3ccccc3[n+]2=O)cc1", 3.8],
  ["c1cc2c(cc1CSCc1c(CSCc3ccc4c(c3)OCO4)c(CSCc3ccc4c(c3)OCO4)c(CSCc3ccc4c(c3)OCO4)c(CSCc3ccc4c(c3)OCO4)c1CSCc1ccc3c(c1)OCO3)OCO2", -8.65],
  ["CCOc1cccc(C=N)c1O", -0.55],
  ["CC(C)(C)C1CCC2(CC1)CCN(CCCN1CCOCC1)CC2", 98.4],
  ["COc1ccc(/C=C/C(=O)c2sc(Nc3ccc([N+](=O)[O-])cc3)nc2C)cc1", 7.45],
  ["C=C1N(c2cc3ccccc3o2)C(=O)OC12CCCCC2", -2.2],
  ["COc1ccc(CC2c3cc(OC)c(OC)cc3CC[N+]2(C)C)cc1OC (stereo not drawn)", -20.8],
  ["c1nc2nc(N3CCOCC3)nc(N3CCOCC3)c2[nH]1", -0.8],
  ["c1ccc2nc3c(cc2c1)NCC3", 5.15],
  ["O=C1C(=O)c2ccccc2C(O)=C1CN1CCOCC1", 32.1],
  ["ONc1ccc2c(c1)C1C(C3C2C2(Cl)C(Cl)=C(Cl)C3(Cl)C2(Cl)Cl)C2(Cl)C(Cl)=C(Cl)C1(Cl)C2(Cl)Cl (stereo not drawn)", 13.6]
]}
